- Test system: p-AKT S473 in PC3 human prostate tumours
- Protocol Description: In vivo xenograft mechanism of action study
- Design: species or system athymic nude mice
- Condition Details: Mus musculus, po; PC3 tumours in nude mice, once 50 mg/kg p.o., 5 hours post treatment; read-out: P-AKT % relative to control at 5 hours
So basically: response vs control in vivo at 50 mg/kg at 20% or higher? That is 1. Lower than 20%? That is -1.

(Q) Assess whether reported response vs control in vivo at 50 mg/kg for COc1cc(OC)c2nc(-c3ccc(C4(N)CCC4)cc3)c(-c3ccccc3)n2c1 [Example 2-146] sits at 20% or higher.
(A) 1

(Q) Assess whether reported response vs control in vivo at 50 mg/kg for NC1(c2ccc(-c3nc4ccc(Cl)cn4c3-c3ccccc3)cc2)CCC1 [Example 2-140] sits at 20% or higher.
(A) -1

(Q) Assess whether reported response vs control in vivo at 50 mg/kg for NC1(c2ccc(-c3nc4cc(-c5cccnc5)ccn4c3-c3ccccc3)cc2)CCC1 [Example 2-110] sits at 20% or higher.
(A) -1

(Q) Assess whether reported response vs control in vivo at 50 mg/kg for COc1ccn2c(-c3ccccc3)c(-c3ccc(C4(N)CCC4)cc3)nc2n1 [Example 2-00] sits at 20% or higher.
(A) -1

(Q) Assess whether reported response vs control in vivo at 50 mg/kg for NC1(c2ccc(-c3nc4ncc(-c5ccccc5)cn4c3-c3ccccc3)cc2)CCC1 [Example 1-9] sits at 20% or higher.
(A) 1

---

Listing of entries alongside the reported IC50.
- Target Or Test System: His-tagged human recombinant kinase full-length Akt1 (Homo sapiens (Human), UniProt P31749)
- Sequence (P31749 whole entry): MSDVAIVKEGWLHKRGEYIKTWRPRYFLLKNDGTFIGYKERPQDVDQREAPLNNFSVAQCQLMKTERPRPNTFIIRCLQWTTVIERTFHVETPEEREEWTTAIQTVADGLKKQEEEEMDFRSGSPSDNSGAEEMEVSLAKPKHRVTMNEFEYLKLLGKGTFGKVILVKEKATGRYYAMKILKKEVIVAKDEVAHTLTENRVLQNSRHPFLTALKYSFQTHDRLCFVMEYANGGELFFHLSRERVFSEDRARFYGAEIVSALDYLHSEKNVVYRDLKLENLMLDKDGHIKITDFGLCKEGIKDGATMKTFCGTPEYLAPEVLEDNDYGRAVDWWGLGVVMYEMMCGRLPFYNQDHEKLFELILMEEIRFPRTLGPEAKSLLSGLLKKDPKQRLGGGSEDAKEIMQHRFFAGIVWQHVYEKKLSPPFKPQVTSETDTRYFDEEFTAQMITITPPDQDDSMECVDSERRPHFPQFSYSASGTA
- Protocol Description: Akt1 kinase assay (TR-FRET)
- Condition Details: 10 μM ATP; read-out: Akt1, median IC50
Write down the numeric answer in nM and omit the unit.

// worked examples, IC50 included
>  <Test Smiles>
COc1cc(Cl)cn2c(-c3ccccc3)c(-c3ccc(C4(N)CCC4)cc3)nc12

>  <Reported Measurement>
24

$$$$
>  <Test Smiles>
COC(=O)c1cccn2c(-c3ccccc3)c(-c3ccc(C4(N)CCC4)cc3)nc12

>  <Reported Measurement>
47

$$$$
>  <Test Smiles>
NC1(c2ccc(-c3nc4c(-c5ccc6cn[nH]c6c5)cccn4c3-c3ccccc3)cc2)CCC1

>  <Reported Measurement>
390

$$$$

(Q) Tell me the measured IC50 of `COC(=O)/C=C/c1ccc2nc(-c3ccc(C4(N)CCC4)cc3)c(-c3ccccc3)n2c1` , please.
(A) 196

(Q) Tell me the measured IC50 of `NC1(c2ccc(-c3nc4cc(C(=O)O)ccn4c3-c3ccccc3)cc2)CCC1` , please.
(A) 550

(Q) Tell me the measured IC50 of `COc1cc(Br)cn2c(-c3ccccc3)c(-c3ccc(C4(N)CCC4)cc3)nc12` , please.
(A) 19

(Q) Tell me the measured IC50 of `CNC(=O)Nc1ccc2nc(-c3ccc(C4(N)CCC4)cc3)c(-c3ccccc3)n2c1` , please.
(A) 327

(Q) Tell me the measured IC50 of `COc1cc(-c2ncc[nH]2)cn2c(-c3ccccc3)c(-c3ccc(C4(N)CCC4)cc3)nc12` , please.
(A) 198

(Q) Tell me the measured IC50 of `N#CCOc1ccc2nc(-c3ccc(C4(N)CCC4)cc3)c(-c3ccccc3)n2c1` , please.
(A) 96

(Q) Tell me the measured IC50 of `NC1(c2ccc(-c3nc4ccc(-c5cccnc5)cn4c3-c3ccccc3)cc2)CCC1` , please.
(A) 541

(Q) Tell me the measured IC50 of `NC(=O)/C=C/c1ccc2nc(-c3ccc(C4(N)CCC4)cc3)c(-c3ccccc3)n2c1` , please.
(A) 347

(Q) Tell me the measured IC50 of `NC1(c2ccc(-c3nc4cc(-c5cn[nH]c5)ccn4c3-c3ccccc3)cc2)CCC1` , please.
(A) 188

(Q) Tell me the measured IC50 of `CCOc1ccc2nc(-c3ccc(C4(N)CCC4)cc3)c(-c3ccccc3)n2c1` , please.
(A) 204

(Q) Tell me the measured IC50 of `COC(=O)COc1ccc2nc(-c3ccc(C4(N)CCC4)cc3)c(-c3ccccc3)n2c1` , please.
(A) 179

(Q) Tell me the measured IC50 of `NC1(c2ccc(-c3nc4ccc(C(=O)NC5CC5)cn4c3-c3ccccc3)cc2)CCC1` , please.
(A) 493

(Q) Tell me the measured IC50 of `CCOC(=O)c1ccc2nc(-c3ccc(C4(N)CCC4)cc3)c(-c3ccccc3)n2c1` , please.
(A) 93

---

- Target Or Test System: His-tagged human recombinant kinase full-length Akt1 (Homo sapiens (Human))
- Protocol Description: Akt1 kinase assay (TR-FRET)
- Format: biochemical
- Condition Details: 10 μM ATP; read-out: Akt1, median IC50
Experimental Endpoint: IC50 (µM)
Write down the numeric answer in µM and omit the unit.

>  <Test Smiles>
NC1(c2ccc(-c3nc4cc(O)ccn4c3-c3ccccc3)cc2)CCC1

>  <IC50, µM>
1.27

$$$$

(Q) Tell me the measured IC50 of `NC1(c2ccc(-c3nc4c(-c5cn[nH]c5)cccn4c3-c3ccccc3)cc2)CCC1` , please.
(A) 0.099

(Q) Tell me the measured IC50 of `Cc1cccn2c(-c3ccccc3)c(-c3ccc(C4(N)CCC4)cc3)nc12` , please.
(A) 0.1

(Q) Tell me the measured IC50 of `NC1(c2ccc(-c3nc4ncccn4c3-c3ccccc3)cc2)CCC1` , please.
(A) 0.348

---

- Target Or Test System: His-tagged human recombinant kinase full-length Akt1 (Homo sapiens (Human), UniProt P31749)
- Protocol Description: Akt1 kinase assay (TR-FRET)
- Condition Details: 10 μM ATP; read-out: Akt1, median IC50
Listing of entries alongside the reported IC50.
Write down the numeric answer in nM and omit the unit.

>  <Compound>
CCOC(=O)c1ccn2c(-c3ccccc3)c(-c3ccc(C4(N)CCC4)cc3)nc2c1 [Example 2-119]

>  <Value Units>
nM

>  <IC50>
86

$$$$
>  <Compound>
NC1(c2ccc(-c3nc4cc(C(=O)NO)ccn4c3-c3ccccc3)cc2)CCC1 [Example 2-127]

>  <Value Units>
nM

>  <IC50>
132

$$$$
>  <Compound>
NC1(c2ccc(-c3nc4c(O)cccn4c3-c3ccccc3)cc2)CCC1 [Example 5-1]

>  <Value Units>
nM

>  <IC50>
590

$$$$
>  <Compound>
CC(=O)c1ccc2nc(-c3ccc(C4(N)CCC4)cc3)c(-c3ccccc3)n2c1 [Example 2-144]

>  <Value Units>
nM

>  <IC50>
55

$$$$
>  <Compound>
NC1(c2ccc(-c3nc4ccc(-c5nn[nH]n5)cn4c3-c3ccccc3)cc2)CCC1 [Example 2-135]

>  <Value Units>
nM

>  <IC50>
74

$$$$
>  <Compound>
NCCOc1ccn2c(-c3ccccc3)c(-c3ccc(C4(N)CCC4)cc3)nc2n1 [Example 4-0]

>  <Value Units>
nM

>  <IC50>
548

$$$$

(Q) Tell me the measured IC50 of COC(=O)/C=C/c1ccn2c(-c3ccccc3)c(-c3ccc(C4(N)CCC4)cc3)nc2c1 [Example 2-123] , please.
(A) 345

(Q) Tell me the measured IC50 of NC1(c2ccc(-c3nc4cc(-c5ccncc5)ccn4c3-c3ccccc3)cc2)CCC1 [Example 2-109] , please.
(A) 181

(Q) Tell me the measured IC50 of COc1cc(C(N)=O)cn2c(-c3ccccc3)c(-c3ccc(C4(N)CCC4)cc3)nc12 [Example 1-13] , please.
(A) 24

---

- Target Or Test System: His-tagged human recombinant kinase full-length Akt1 (Homo sapiens (Human), UniProt P31749)
- Protocol Description: Akt1 kinase assay (TR-FRET)
- Condition Details: 10 μM ATP; read-out: Akt1, median IC50
Experimental Endpoint: IC50 (nM)
Write down the numeric answer in nM and omit the unit.

// worked examples, IC50 included
>  <Test Smiles>
CCc1ccn2c(-c3ccccc3)c(-c3ccc(C4(N)CCC4)cc3)nc2c1

>  <Value Units>
nM

>  <IC50>
1660

$$$$
>  <Test Smiles>
NC1(c2ccc(-c3nc4cc(-c5ncc[nH]5)ccn4c3-c3ccccc3)cc2)CCC1

>  <Value Units>
nM

>  <IC50>
71

$$$$
>  <Test Smiles>
N[C@]1(c2ccc(-c3nc4nc(O)ccn4c3-c3ccccc3)cc2)C[C@H](O)C1

>  <Value Units>
nM

>  <IC50>
384

$$$$
>  <Test Smiles>
NC(=O)c1cc(-c2cccnc2)cn2c(-c3ccccc3)c(-c3ccc(C4(N)CCC4)cc3)nc12

>  <Value Units>
nM

>  <IC50>
177

$$$$
>  <Test Smiles>
CCc1cc(OC)c2nc(-c3ccc(C4(N)CCC4)cc3)c(-c3ccccc3)n2c1

>  <Value Units>
nM

>  <IC50>
148

$$$$
>  <Test Smiles>
NC1(c2ccc(-c3nc4ccc(C(=O)NCC5CC5)cn4c3-c3ccccc3)cc2)CCC1

>  <Value Units>
nM

>  <IC50>
342

$$$$
>  <Test Smiles>
Nc1ccc2nc(-c3ccc(C4(N)CCC4)cc3)c(-c3ccccc3)n2c1

>  <Value Units>
nM

>  <IC50>
854

$$$$
>  <Test Smiles>
NC(=O)c1cc(Cl)c2nc(-c3ccc(C4(N)CCC4)cc3)c(-c3ccccc3)n2c1

>  <Value Units>
nM

>  <IC50>
12

$$$$

(Q) Tell me the measured IC50 of `C=Cc1cc(OC)c2nc(-c3ccc(C4(N)CCC4)cc3)c(-c3ccccc3)n2c1` , please.
(A) 191

(Q) Tell me the measured IC50 of `Cc1cccc2nc(-c3ccc(C4(N)CCC4)cc3)c(-c3ccccc3)n12` , please.
(A) 1500

(Q) Tell me the measured IC50 of `Cc1cc(-c2ccn[nH]2)cn2c(-c3ccccc3)c(-c3ccc(C4(N)CCC4)cc3)nc12` , please.
(A) 99

(Q) Tell me the measured IC50 of `NC(=O)c1cc(-c2cn[nH]c2)cn2c(-c3ccccc3)c(-c3ccc(C4(N)CCC4)cc3)nc12` , please.
(A) 67

(Q) Tell me the measured IC50 of `NC(=O)c1cc(Br)c2nc(-c3ccc(C4(N)CCC4)cc3)c(-c3ccccc3)n2c1` , please.
(A) 11

(Q) Tell me the measured IC50 of `NC1(c2ccc(-c3nc4cc(-c5nn[nH]n5)ccn4c3-c3ccccc3)cc2)CCC1` , please.
(A) 26

(Q) Tell me the measured IC50 of `NC1(c2ccc(-c3nc4cc(Cl)ccn4c3-c3ccccc3)cc2)CCC1` , please.
(A) 113

(Q) Tell me the measured IC50 of `COC(=O)c1ccn2c(-c3ccccc3)c(-c3ccc(C4(N)CCC4)cc3)nc2c1` , please.
(A) 226
